Entry source: PubChem BioAssay (NCI)

- Test system: RXF 393 renal
- PROTOCOL: NCI-60 one-dose screen, 48 h
- CONDITIONS: 10 µM unless noted
The panel holds about 83,000 compounds, 20% with a hit somewhere; the sample as a whole holds those more often. Calls of active or inactive are those of the source. How the source made its calls: active means growth percent below 10; inactive means the rest.
Classes used: active, inactive

- C/C=C(/C)C(=O)O[C@@H]1CC(C)(C)CC2C34OC(=O)[C@@]21CC[C@@]3(C)[C@]1(C)CCC2C(C)(C)C(=O)CC[C@]2(C)C1C[C@@H]4Cl (stereo partly drawn): inactive
- O=C1/C(=C/c2ccc(-c3cccc(C(F)(F)F)c3)o2)SC(=S)N1CCc1ccc(O)cc1: inactive
- C[C@]12CCc3c(ccc4cc(O)ccc34)[C@@H]1C[C@H](O)[C@@H]2O: inactive
- C/C=C(\C)C(=O)N[C@H]1CC[C@]2(C)C3CC[C@@]4(C)C(CC[C@@H]4C(C)N(C)C)C3CCC2[C@H]1OC(C)=O (stereo partly drawn): active
- O=C(Nc1ccc2ncsc2c1)c1csc(Nc2ccc3[nH]ncc3c2)n1: inactive
- O=C(CC1(O)C(=O)Nc2ccc(Br)cc21)c1ccc(Cl)cc1 (stereo not drawn): inactive
- CON1CCC[C@]2(C)[C@H]3CC[C@@H]4[C@H]5[C@@H](O)C(C)(C)CC[C@]5(CO)CC[C@@]4(C)[C@]3(C)CC[C@H]2C1(C)C: inactive
- Cc1ccccc1SSc1ccccc1C: inactive
- Cn1cc(C2=C(c3cccc4ccccc34)C(=O)NC2=O)c2cc(Br)ccc21: inactive
- CC(=O)N1N=C(c2ccc(Nc3nc(Nc4ccc(F)cc4)nc(Nc4ccc(F)cc4)n3)cc2)CC1c1ccccc1 (stereo not drawn): inactive
- Cc1ccc(S(=O)(=O)OC[C@@]2(C)CC[C@]3(C)CC[C@]4(C)C(=C3C2)C=C[C@@H]2[C@@]3(C)CCCNC(C)(C)[C@@H]3CC[C@]24C)cc1: active
- COc1ccc(Cn2cc(C(=O)Nc3cccnc3Nc3ccccc3)nn2)cc1: inactive
- C=C1C(=O)O[C@H]2[C@H]1CC/C(CNS(=O)(=O)c1ccc3ccccc3c1)=C\CC[C@@]1(C)O[C@@H]21: active
- COc1ccc(-c2nc(Cl)c3c(C)nn(-c4ccc(F)cc4)c3n2)cc1: inactive
- COc1cc(CO)cc2cc3ccccc3nc12: inactive
- O=C(/C=C/c1ccc([N+](=O)[O-])cc1)c1ccccc1: inactive
- COc1ccc(S(=O)(=O)Nc2cc(Sc3cccc4cccnc34)c(O)c3ccccc23)cc1: inactive
- O=C(Nc1ccc2ccccc2c1)c1cc2ccccc2cc1O: inactive
- CCN(c1cc(-c2ccc(CN3CCC(/C=C/S(=O)(=O)c4ccccc4)CC3)cc2)cc(C(=O)NCc2c(C)cc(C)[nH]c2=O)c1C)C1CCOCC1: inactive
- CC[C@]1(O)CC2CN(CCc3c([nH]c4ccccc34)C(C(=O)OC)(c3cc4c(cc3OC)N(C=O)[C@H]3[C@@](O)(C(=O)OC)[C@H](OC(C)=O)[C@]5(CC)[C@@H]6C[C@@H]6CN6CC[C@]43[C@@H]65)C2)C1 (stereo partly drawn): inactive
- Nc1nc(Nc2cccnc2)sc1C(=O)c1ccccc1F: active
- CCCCCCCCCCCCC[C@H](O)C[C@H](O)[C@H](C)N: active
- Nc1nc(N)c2c(n1)NC(c1cccc(Nc3ccnc4cc(C(F)(F)F)ccc34)c1)CC(c1ccc(F)cc1)=N2 (stereo not drawn): inactive
- COc1ccc(Cl)cc1Nc1nc(C(F)(F)F)ccc1C(=O)N/N=C/c1ccc(N(C)C)cc1: inactive
- C#Cc1cc(C(=O)Nc2ccc(CN3CCN(C)CC3)c(C(F)(F)F)c2)ccc1C: inactive
- Cc1nc2cccc(NCCCCC(=O)NO)c2c(=O)n1-c1ccccc1: inactive
- N=c1c2c(-c3ccccc3)c(-c3ccccc3)oc2ncn1NC(=O)c1cccnc1: inactive
- CC(C)(C)CC(N)=O: inactive
